IC50 values for the molecules below.
molecular target: Vascular endothelial growth factor receptor 2 (Mus musculus); assay: Inhibition of mouse VEGFR2 autophosphorylation in NIH3T3 cell
Sequence (P35918 whole entry): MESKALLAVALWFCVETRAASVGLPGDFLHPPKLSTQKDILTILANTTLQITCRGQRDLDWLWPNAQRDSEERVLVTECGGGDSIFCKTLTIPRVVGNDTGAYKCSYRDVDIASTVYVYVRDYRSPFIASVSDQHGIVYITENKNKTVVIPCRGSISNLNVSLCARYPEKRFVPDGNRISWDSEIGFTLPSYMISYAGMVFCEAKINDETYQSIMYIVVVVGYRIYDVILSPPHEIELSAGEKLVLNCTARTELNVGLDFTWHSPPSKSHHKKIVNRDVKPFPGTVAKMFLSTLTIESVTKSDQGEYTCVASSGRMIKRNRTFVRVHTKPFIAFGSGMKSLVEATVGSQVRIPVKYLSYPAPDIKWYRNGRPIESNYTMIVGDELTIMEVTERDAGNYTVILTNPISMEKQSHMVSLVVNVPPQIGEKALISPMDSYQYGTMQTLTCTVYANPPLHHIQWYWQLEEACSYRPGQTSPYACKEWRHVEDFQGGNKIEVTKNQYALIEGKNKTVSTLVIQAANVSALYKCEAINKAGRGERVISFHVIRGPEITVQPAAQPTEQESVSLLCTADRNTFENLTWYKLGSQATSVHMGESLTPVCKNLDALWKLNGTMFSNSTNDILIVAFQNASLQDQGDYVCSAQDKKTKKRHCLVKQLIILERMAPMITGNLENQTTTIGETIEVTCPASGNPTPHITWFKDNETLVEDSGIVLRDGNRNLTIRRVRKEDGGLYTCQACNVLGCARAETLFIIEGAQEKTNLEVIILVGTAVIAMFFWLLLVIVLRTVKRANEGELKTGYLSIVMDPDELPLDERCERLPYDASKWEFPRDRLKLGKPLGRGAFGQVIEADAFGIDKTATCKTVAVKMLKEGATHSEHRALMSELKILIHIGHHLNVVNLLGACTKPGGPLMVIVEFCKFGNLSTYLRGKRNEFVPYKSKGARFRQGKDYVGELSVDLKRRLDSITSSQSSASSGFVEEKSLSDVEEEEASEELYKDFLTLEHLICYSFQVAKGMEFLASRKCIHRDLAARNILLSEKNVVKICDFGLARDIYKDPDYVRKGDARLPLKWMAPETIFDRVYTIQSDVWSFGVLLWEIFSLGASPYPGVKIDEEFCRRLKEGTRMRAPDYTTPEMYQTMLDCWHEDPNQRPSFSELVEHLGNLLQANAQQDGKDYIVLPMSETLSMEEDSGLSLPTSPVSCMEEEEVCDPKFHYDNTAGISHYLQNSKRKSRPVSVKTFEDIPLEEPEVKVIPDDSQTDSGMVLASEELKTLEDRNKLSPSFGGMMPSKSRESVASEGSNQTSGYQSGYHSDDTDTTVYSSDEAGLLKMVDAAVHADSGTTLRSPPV

structure as smiles | IC50
CC(C)Cn1c2ccc(C(=O)c3sccc3Br)cc2c2c3c(c4c(c21)CCc1nn(C)cc1-4)C(=O)NC3 | < 10 nM

Inquiry: Which IC50 is listed for Cc1csc(C(=O)c2ccc3c(c2)c2c4c(c5c(c2n3CC(C)C)CCc2nn(C)cc2-5)C(=O)NC4)c1 ?
Reply text: > 50 nM

Inquiry: What value of IC50 has been recorded for this entry: Cc1ccsc1C(=O)c1ccc2c(c1)c1c3c(c4c(c1n2CC(C)C)CCc1nn(C)cc1-4)C(=O)NC3
Reply text: < 10 nM
